- tested.system: human EGFR WT (NIH/3T3 cells, EGF-induced) (Homo sapiens, UniProt P00533)
- Sequence (P00533 25-1210): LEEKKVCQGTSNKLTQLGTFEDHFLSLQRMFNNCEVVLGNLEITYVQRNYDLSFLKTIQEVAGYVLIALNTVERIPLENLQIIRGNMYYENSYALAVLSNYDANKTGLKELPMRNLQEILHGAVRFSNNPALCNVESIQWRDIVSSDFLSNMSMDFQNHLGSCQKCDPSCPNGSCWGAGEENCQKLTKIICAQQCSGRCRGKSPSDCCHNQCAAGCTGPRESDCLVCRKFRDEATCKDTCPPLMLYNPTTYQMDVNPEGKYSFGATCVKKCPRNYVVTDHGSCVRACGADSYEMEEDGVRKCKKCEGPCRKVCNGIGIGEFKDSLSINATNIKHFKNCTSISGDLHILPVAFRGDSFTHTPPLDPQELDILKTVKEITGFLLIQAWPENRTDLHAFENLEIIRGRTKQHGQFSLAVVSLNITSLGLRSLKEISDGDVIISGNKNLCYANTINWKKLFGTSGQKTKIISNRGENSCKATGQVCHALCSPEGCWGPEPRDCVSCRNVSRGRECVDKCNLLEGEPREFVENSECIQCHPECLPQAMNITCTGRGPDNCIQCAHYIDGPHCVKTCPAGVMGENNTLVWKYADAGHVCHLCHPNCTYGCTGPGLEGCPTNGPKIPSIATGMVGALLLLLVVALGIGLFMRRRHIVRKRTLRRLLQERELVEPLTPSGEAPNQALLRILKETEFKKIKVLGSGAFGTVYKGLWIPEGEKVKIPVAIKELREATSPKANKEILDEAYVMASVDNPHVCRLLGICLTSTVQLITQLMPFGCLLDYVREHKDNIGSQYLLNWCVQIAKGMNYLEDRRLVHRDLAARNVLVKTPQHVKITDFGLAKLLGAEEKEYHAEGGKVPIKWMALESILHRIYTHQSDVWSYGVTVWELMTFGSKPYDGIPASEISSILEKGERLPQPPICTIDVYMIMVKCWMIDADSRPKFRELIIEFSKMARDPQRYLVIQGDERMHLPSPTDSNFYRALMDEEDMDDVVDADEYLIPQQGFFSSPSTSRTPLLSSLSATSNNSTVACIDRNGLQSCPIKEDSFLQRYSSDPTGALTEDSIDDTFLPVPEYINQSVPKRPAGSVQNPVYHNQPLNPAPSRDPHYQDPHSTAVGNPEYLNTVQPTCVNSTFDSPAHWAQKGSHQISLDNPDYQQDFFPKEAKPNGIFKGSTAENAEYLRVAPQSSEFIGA
- protocol.details: EGFR target modulation in engineered NIH/3T3 cell lines (phospho-EGFR Y1068 AlphaLISA), EGFR WT
- Assay type: cell-based
- setup.conditions: engineered NIH/3T3 cells, read-out: NIH3T3 IC50 (μM) EGFR (WT)
metric: IC50 (µM)

Previously resolved entries follow.
{"columns": ["compound", "measure.unit", "numeric.readout"],
 "data": [
  ["Cc1cccc2nc(NC(=O)c3cnco3)n(C3CCCCN(C(=O)/C=C/CN(C)C)C3)c12 (stereo not shown)", "µM", 0.172],
  ["Cc1cc(C(=O)Nc2nc3cccc(Cl)c3n2[C@@H]2CCCCN(C(=O)/C=C/CN3CC(O)C3)C2)ccn1", "µM", 0.41],
  ["Cc1cccc2nc(NC(=O)c3cc(F)c(F)c(F)c3)n(C3CCCCN(C(=O)/C=C/CN(C)C)C3)c12 (stereo not shown)", "µM", 0.224]
]}

A = C=CC(=O)N1CCCC(n2c(NC(=O)c3cccc(C(F)(F)F)c3)nc3c2CN(C(C)=O)CC3)C1 (stereo not shown)
B = Cc1cccc2nc(NC(=O)c3cnccn3)n(C3CCCCN(C(=O)/C=C/CN(C)C)C3)c12 (stereo not shown)
Inquiry: Given the listed records, identify the one among A and B with higher IC50. Response format: the label of the selected entry.
Reply text: A

* * *

- tested.system: H3255 (EGFR L858R) (Homo sapiens, UniProt P00533, L858R)
- Sequence (P00533 25-1210 L858R): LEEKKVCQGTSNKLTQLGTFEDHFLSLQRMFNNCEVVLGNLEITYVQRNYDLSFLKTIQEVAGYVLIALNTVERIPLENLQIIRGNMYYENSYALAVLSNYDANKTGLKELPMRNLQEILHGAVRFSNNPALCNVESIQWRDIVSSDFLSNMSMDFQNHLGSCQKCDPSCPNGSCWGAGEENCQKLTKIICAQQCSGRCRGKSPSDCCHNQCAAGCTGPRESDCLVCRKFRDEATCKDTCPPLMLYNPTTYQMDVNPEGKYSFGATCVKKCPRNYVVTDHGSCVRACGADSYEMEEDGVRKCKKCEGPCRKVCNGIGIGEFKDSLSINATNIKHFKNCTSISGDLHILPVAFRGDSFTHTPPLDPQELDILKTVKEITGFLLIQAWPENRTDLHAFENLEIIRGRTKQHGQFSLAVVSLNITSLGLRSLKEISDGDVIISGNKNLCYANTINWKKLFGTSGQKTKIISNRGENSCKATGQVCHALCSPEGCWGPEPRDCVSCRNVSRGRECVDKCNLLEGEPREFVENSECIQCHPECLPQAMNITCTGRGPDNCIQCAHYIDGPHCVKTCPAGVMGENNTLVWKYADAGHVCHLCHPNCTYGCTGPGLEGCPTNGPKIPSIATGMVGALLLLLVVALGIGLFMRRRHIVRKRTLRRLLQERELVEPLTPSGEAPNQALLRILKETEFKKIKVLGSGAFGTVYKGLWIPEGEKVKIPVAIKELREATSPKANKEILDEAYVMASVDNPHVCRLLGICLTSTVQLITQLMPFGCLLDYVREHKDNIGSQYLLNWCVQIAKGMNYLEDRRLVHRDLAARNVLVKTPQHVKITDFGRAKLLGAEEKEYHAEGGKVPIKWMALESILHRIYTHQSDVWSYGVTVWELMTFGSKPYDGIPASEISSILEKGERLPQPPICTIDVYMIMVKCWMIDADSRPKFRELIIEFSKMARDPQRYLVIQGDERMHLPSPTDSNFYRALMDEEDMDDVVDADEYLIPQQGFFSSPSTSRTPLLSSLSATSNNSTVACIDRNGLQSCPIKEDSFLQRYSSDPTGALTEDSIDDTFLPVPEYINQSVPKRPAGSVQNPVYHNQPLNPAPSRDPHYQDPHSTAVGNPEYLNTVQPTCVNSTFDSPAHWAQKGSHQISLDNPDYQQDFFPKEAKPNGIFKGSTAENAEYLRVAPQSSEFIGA
- protocol.details: EGFR target modulation in H3255 cell line (phospho-EGFR Y1173 ELISA)
- Procedure: EGFR Target Modulation in H1975, H3255 and HCC827 Cell Lines Tissue Culture. Cells were maintained in 10% FBS/RPMI supplemented with 100 μg/ml Penicillin/Streptomycin (Hyclone #SH30236.01). […] The cells were allowed to incubate overnight in a 37° C., 5% CO2 humidified tissue culture incubator. […] Signal was read on EnVision plate reader using built-in UltraLUM setting. […] With these parameters, the IC50's for each compound in each cell line was calculated using non-linear curve fitting analysis.
metric: IC50 (nM)

Solved entries:
{"columns": ["compound", "tested.system", "measure.unit", "IC50"],
 "data": [
  ["C=CC(=O)N1CCCC[C@@H](n2c(NC(=O)c3cc(C)nc(C)c3)nc3ccc(OCCN4CCCC4)c(Cl)c32)C1 [Example 15]", "H3255 (EGFR L858R) (Homo sapiens, UniProt P00533, L858R)", "nM", 3],
  ["CNC/C=C/C(=O)N1CCCC[C@@H](n2c(NC(=O)c3cc(C)nc(C)c3)nc3cccc(Cl)c32)C1 [Example 17-186]", "H3255 (EGFR L858R) (Homo sapiens, UniProt P00533, L858R)", "nM", 10],
  ["Cc1cc(C(=O)Nc2nc3cccc(Cl)c3n2[C@@H]2CCCCN(C(=O)/C=C/CN3CCCC3)C2)ccn1 [Example 1]", "H3255 (EGFR L858R) (Homo sapiens, UniProt P00533, L858R)", "nM", 12]
]}

I = CNC/C=C/C(=O)N1CCCC[C@@H](n2c(NC(=O)c3ccnc(C)c3)nc3cccc(Cl)c32)C1 [Example 17-185]
II = CN(C)C/C=C/C(=O)N1CCCCC(n2c(NC(=O)c3ccnc(P(C)(C)=O)c3)nc3cccc(Cl)c32)C1 (single isomer, unassigned) [Example 21-10B]
III = Cc1cc(C(=O)Nc2nc3cccc(Cl)c3n2[C@@H]2CCCCN(C(=O)/C=C/CNC3CC3)C2)ccn1 [Example 17-190]
IV = COc1cc2nc(NC(=O)c3cc(C)nc(C)c3)n([C@@H]3CCCCN(C(=O)/C=C/CN(C)C)C3)c2cc1Cl [Example 17-179]
Inquiry: Sort the 4 compounds by IC50; largest first, smallest last. Reply: labels, ordered per the request.
Reply text: IV, II, III, I
(IV: 188 nM, II: 77 nM, III: 3 nM, I: 2 nM)

1 = C=CC(=O)N1CCCC[C@@H](n2c(NC(=O)c3ccnc(C)c3)nc3cc(CN4CCS(=O)(=O)CC4)cc(C)c32)C1 [Example 17-155]
2 = COc1cc2nc(NC(=O)c3ccnc(C)c3)n([C@@H]3CCCCN(C(=O)/C=C/CN(C)C)C3)c2cc1Cl [Example 17-178]
Inquiry: Response body: label of entry with the larger IC50; valid values 1 , 2 . To answer, give the label that identifies your chosen option.
Reply text: 2
(2: 106 nM, 1: 2 nM)

A = C=CC(=O)N1CCC[C@@H](n2c(NC(=O)c3cccc(C(F)(F)F)c3)nc3cc(CN4CCOCC4)ccc32)C1 [Example 17-112]
B = Cc1noc(-c2cccc3nc(NC(=O)c4ccccc4)n(C4COCCN(C(=O)/C=C/CN(C)C)C4)c23)n1 (stereo not drawn) [Example 17-142]
C = C=CC(=O)N1CCC[C@@H](n2c(NC(=O)c3ccnc(C)c3)nc3cccc(C)c32)C1 [Example 17-109]
Inquiry: Put the items in order so that reported IC50 rises from first to last. Reply with the item labels sorted in the order that was asked for.
Reply text: C, A, B
(C: 43 nM, A: 155 nM, B: 640 nM)

A = COc1ccc2nc(NC(=O)c3ccnnc3)n([C@@H]3CCCCN(C(=O)/C=C/CN(C)C)C3)c2c1Cl [Example 17-2]
B = Cc1nccc(C(=O)Nc2nc3cccc(C)c3n2C2CCCCN(C(=O)/C=C/CN(C)C)C2)n1 (stereo not drawn) [Example 17-54]
Inquiry: Consider entries A and B . Which has the numerically lower IC50? The response must carry the label of the picked entry.
Reply text: B
